FYI, the data here is from patent US9790496B2.

Tested on: miR-21
Test: miR-21 luciferase sensor assay in Hela cells
Assay type: cell-based
Conditions: concentration of anti-miR compound 1.9 (unit not given)
Procedure: The compounds were assessed for miR-21 inhibitory activity in a luciferase assay. A microRNA luciferase sensor construct was engineered using pGL3-MCS2 (Promega). The construct was introduced into Hela cells to test the ability of anti-miR compounds to inhibit activity of miR-21. […] Day 4: Hela cells are passively lysed and luciferase activity measured using the Dual-Luciferase Reporter Assay System (Promega). […]
Strand notation (5' to 3'): a small letter for the sugar, then the base; units joined by * are phosphorothioate-linked, units joined directly phosphodiester-linked; [ ] holds rarer units or linkages, { } end groups; capitals alone tell only the bases. e = 2'-O-(2-methoxyethyl) (MOE); l = locked nucleic acid (LNA); k = constrained ethyl (cEt); [5mC] = 5-methylcytosine; d = 2'-deoxy (DNA)
Kindly supply the reported fold change in luciferase value relative to the mock treatment values for the records listed here.

>  <SUBSTANCE>
AE^MeCLAETE^MeCLAEGETE^MeCLTEGEAE^MeTLAEAEGE^MeCLTEAE (antisense eA*l[5mC]*eA*eT*l[5mC]*eA*eG*eT*l[5mC]*eT*eG*eA*lT*eA*eA*eG*l[5mC]*eT*eA) [Compound 25117, LNA variant: each non-bicyclic nucleoside is 2'-MOE, each cytosine 5-methyl cytosine]

>  <SYSTEM>
miR-21

>  <RESULT>
1.14

$$$$
>  <SUBSTANCE>
AE^MeCSAT^MeCSAGT^MeCSTGATSAAG^MeCSTAS (antisense eA*k[5mC]*dA*dT*k[5mC]*dA*dG*dT*k[5mC]*dT*dG*dA*kT*dA*dA*dG*k[5mC]*dT*kA) [Compound 25924, 25070 variant: 3'-terminal cEt nucleoside and each cytosine is a 5-methyl cytosine]

>  <SYSTEM>
miR-21

>  <RESULT>
1.37

$$$$
>  <SUBSTANCE>
AE^MeCSAETE^MeCSAEGETE^MeCSTEGEAE^MeTSAEAEGE^MeCSTEAE (antisense eA*k[5mC]*eA*eT*k[5mC]*eA*eG*eT*k[5mC]*eT*eG*eA*kT*eA*eA*eG*k[5mC]*eT*eA; further chemistry not given here) [Compound 25116, 25070 variant: each non-bicyclic nucleoside is 2'-MOE, each cytosine 5-methyl cytosine]

>  <SYSTEM>
miR-21

>  <RESULT>
1.06

$$$$

Query: Request the reported fold change in luciferase value relative to the mock treatment associated with AECSATCSAGTCSTGAUSAAGCSTAS (ACATCAGTCTGATAAGCTA; modified nucleosides coded in name, code key not given here) [Compound 25923, 25070 variant: 3'-terminal nucleoside is a cEt nucleoside rather than 2'-MOE nucleoside]
Result: 1.10

* * *

Test system: miR-21
Experiment: miR-21 luciferase sensor assay in Hela cells
Type: cell-based
Conditions: .16 nM oligonucleotide; Hela cells; mock transfection 45
Kindly supply the reported luciferase value normalized to beta-galactosidase activity values for the records listed here.

See these solved cases before continuing.
>  <SUBSTANCE>
TE^MeCEAEAECSAETECSAEGETECSTEGEAEUSAEAEGECSTEAE (TCAACATCAGTCTGATAAGCTA; listed as DNA, chemistry not fully specified) [Compound 25068]

>  <RESULT>
45

$$$$
>  <SUBSTANCE>
Te^MeCASA^MeCAST^MeCAGST^MeCTGASTAAGS^MeCTAe (antisense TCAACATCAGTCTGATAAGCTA; all C 5-methyl, all phosphorothioate, sugars by position not given here; further chemistry not fully specified) [Compound 25067]

>  <RESULT>
38

$$$$
>  <SUBSTANCE>
AECSAETECSAEGETECSTEGEAEUSAEAEGECSTEAE (ACATCAGTCTGATAAGCTA; S-cEt/2'-MOE, phosphorothioate, chemistry not fully specified) [Compound 25072]

>  <RESULT>
40

$$$$

Pending substance:
Query: Param readout= luciferase value normalized to beta-galactosidase activity; system= miR-21; entry= AECSATCSAGTCSTGAUSAAGCSTAE (ACATCAGTCTGATAAGCTA; modified nucleosides coded in name, code key not given here) [Compound 25070] ; returns value.
Result: 65

* * *

System: miR-21
Test: miR-21 luciferase sensor assay in Hela cells
Type: cell-based
Settings: concentration of anti-miR compound 50.0 (unit not given)
Strand notation (5' to 3'): a small letter for the sugar, then the base; units joined by * are phosphorothioate-linked, units joined directly phosphodiester-linked; [ ] holds rarer units or linkages, { } end groups; capitals alone tell only the bases. e = 2'-O-(2-methoxyethyl) (MOE); l = locked nucleic acid (LNA); k = constrained ethyl (cEt); [5mC] = 5-methylcytosine; d = 2'-deoxy (DNA)
1 if fold change in luciferase value relative to the mock treatment is below 10. 0 if not; exact matches included in 0.

# example entries with known answers
>  <SUBSTANCE>
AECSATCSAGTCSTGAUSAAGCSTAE (ACATCAGTCTGATAAGCTA; modified nucleosides coded in name, code key not given here) [Compound 25070]

>  <CLASSIFICATION>
0

$$$$
>  <SUBSTANCE>
AE^MeCSAT^MeCSAGT^MeCSTGATSAAG^MeCSTAE (antisense ACATCAGTCTGATAAGCTA; modified nucleosides coded in name, code key not given here) [Compound 25922, 25070 variant: each cytosine is a 5-methyl cytosine]

>  <CLASSIFICATION>
0

$$$$
>  <SUBSTANCE>
AECSATCSAGTCSTGAUSAAGCSTAS (ACATCAGTCTGATAAGCTA; modified nucleosides coded in name, code key not given here) [Compound 25923, 25070 variant: 3'-terminal nucleoside is a cEt nucleoside rather than 2'-MOE nucleoside]

>  <CLASSIFICATION>
0

$$$$
>  <SUBSTANCE>
AE^MeCLAETE^MeCLAEGETE^MeCLTEGEAE^MeTLAEAEGE^MeCLTEAE (antisense eA*l[5mC]*eA*eT*l[5mC]*eA*eG*eT*l[5mC]*eT*eG*eA*lT*eA*eA*eG*l[5mC]*eT*eA) [Compound 25117, LNA variant: each non-bicyclic nucleoside is 2'-MOE, each cytosine 5-methyl cytosine]

>  <CLASSIFICATION>
1

$$$$
>  <SUBSTANCE>
AE^MeCSAT^MeCSAGT^MeCSTGATSAAG^MeCSTAS (antisense eA*k[5mC]*dA*dT*k[5mC]*dA*dG*dT*k[5mC]*dT*dG*dA*kT*dA*dA*dG*k[5mC]*dT*kA) [Compound 25924, 25070 variant: 3'-terminal cEt nucleoside and each cytosine is a 5-methyl cytosine]

>  <CLASSIFICATION>
1

$$$$

Here is the next item to consider.
Query: Regarding AE^MeCSAETE^MeCSAEGETE^MeCSTEGEAE^MeTSAEAEGE^MeCSTEAE (antisense eA*k[5mC]*eA*eT*k[5mC]*eA*eG*eT*k[5mC]*eT*eG*eA*kT*eA*eA*eG*k[5mC]*eT*eA; further chemistry not given here) [Compound 25116, 25070 variant: each non-bicyclic nucleoside is 2'-MOE, each cytosine 5-methyl cytosine] , kindly confirm whether its fold change in luciferase value relative to the mock treatment is beneath 10.
Result: 1

* * *

Kindly supply the reported fold change in luciferase value relative to the mock treatment values for the records listed here.
Tested on: miR-21
Test: miR-21 luciferase sensor assay in Hela cells
Assay type: cell-based
Conditions: concentration of anti-miR compound 0.2 (unit not given)
Strand notation (5' to 3'): a small letter for the sugar, then the base; units joined by * are phosphorothioate-linked, units joined directly phosphodiester-linked; [ ] holds rarer units or linkages, { } end groups; capitals alone tell only the bases. e = 2'-O-(2-methoxyethyl) (MOE); l = locked nucleic acid (LNA); k = constrained ethyl (cEt); [5mC] = 5-methylcytosine; d = 2'-deoxy (DNA)
Answers are plain numbers.

See these solved cases before continuing.
>  <SUBSTANCE>
AE^MeCSAT^MeCSAGT^MeCSTGATSAAG^MeCSTAE (antisense ACATCAGTCTGATAAGCTA; modified nucleosides coded in name, code key not given here) [Compound 25922, 25070 variant: each cytosine is a 5-methyl cytosine]

>  <RECORDED_NUMBER>
1.02

$$$$
>  <SUBSTANCE>
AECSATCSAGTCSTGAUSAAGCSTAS (ACATCAGTCTGATAAGCTA; modified nucleosides coded in name, code key not given here) [Compound 25923, 25070 variant: 3'-terminal nucleoside is a cEt nucleoside rather than 2'-MOE nucleoside]

>  <RECORDED_NUMBER>
1.06

$$$$
>  <SUBSTANCE>
AE^MeCSAT^MeCSAGT^MeCSTGATSAAG^MeCSTAS (antisense eA*k[5mC]*dA*dT*k[5mC]*dA*dG*dT*k[5mC]*dT*dG*dA*kT*dA*dA*dG*k[5mC]*dT*kA) [Compound 25924, 25070 variant: 3'-terminal cEt nucleoside and each cytosine is a 5-methyl cytosine]

>  <RECORDED_NUMBER>
1.10

$$$$

The following substances each have a reported value; give each one's fold change in luciferase value relative to the mock treatment.
1. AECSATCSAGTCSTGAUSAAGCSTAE (ACATCAGTCTGATAAGCTA; modified nucleosides coded in name, code key not given here) [Compound 25070]
2. AE^MeCLAETE^MeCLAEGETE^MeCLTEGEAE^MeTLAEAEGE^MeCLTEAE (antisense eA*l[5mC]*eA*eT*l[5mC]*eA*eG*eT*l[5mC]*eT*eG*eA*lT*eA*eA*eG*l[5mC]*eT*eA) [Compound 25117, LNA variant: each non-bicyclic nucleoside is 2'-MOE, each cytosine 5-methyl cytosine]

Result:
[1.04, 1.05]
